# MEASURED_ON: UniProt:Q9H422
# Sequence (Q9H422 whole entry, looked up): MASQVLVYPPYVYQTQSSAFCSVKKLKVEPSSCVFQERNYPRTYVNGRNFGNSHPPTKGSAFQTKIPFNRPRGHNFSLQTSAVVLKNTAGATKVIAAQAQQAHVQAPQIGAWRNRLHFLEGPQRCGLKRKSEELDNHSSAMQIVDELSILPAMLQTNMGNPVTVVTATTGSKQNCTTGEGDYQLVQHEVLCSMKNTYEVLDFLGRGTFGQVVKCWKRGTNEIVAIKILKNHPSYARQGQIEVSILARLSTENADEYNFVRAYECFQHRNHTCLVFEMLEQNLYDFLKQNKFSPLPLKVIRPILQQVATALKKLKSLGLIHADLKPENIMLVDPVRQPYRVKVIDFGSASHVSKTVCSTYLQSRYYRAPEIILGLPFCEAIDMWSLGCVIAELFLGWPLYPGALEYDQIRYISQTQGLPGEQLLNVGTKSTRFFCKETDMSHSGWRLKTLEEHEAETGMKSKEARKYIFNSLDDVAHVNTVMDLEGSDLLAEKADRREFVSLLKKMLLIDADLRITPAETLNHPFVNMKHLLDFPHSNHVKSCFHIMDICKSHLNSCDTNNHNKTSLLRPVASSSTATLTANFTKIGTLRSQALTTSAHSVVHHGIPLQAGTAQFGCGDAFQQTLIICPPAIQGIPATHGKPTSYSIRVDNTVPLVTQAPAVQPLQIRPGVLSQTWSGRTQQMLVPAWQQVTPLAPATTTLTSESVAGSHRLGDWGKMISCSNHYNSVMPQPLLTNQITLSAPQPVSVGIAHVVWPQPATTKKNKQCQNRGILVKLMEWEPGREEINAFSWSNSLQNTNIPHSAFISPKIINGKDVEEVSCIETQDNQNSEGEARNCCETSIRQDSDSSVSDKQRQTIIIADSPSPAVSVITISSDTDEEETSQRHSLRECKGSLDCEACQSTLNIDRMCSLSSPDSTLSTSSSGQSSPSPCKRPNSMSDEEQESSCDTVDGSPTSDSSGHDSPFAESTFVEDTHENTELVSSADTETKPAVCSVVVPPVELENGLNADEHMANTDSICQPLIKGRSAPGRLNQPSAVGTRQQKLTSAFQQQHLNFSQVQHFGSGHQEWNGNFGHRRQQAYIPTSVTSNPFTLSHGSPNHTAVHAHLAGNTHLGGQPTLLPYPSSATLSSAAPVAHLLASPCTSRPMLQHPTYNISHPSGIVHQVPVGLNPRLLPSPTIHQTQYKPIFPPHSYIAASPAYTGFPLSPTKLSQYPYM
# MEASUREMENT_DESCRIPTION: radiometric filter-binding kinase assay
# PARTICULARS: compound 1.0 µM
VALUE_TYPE: residual activity (%)

- O=C(Nc1nc2cc(C(F)(F)F)cc(NC3CC3)n2n1)c1cccnc1: 96
- COc1ccc(N(C(=O)Nc2c(C)cccc2C)c2cc(Nc3ccc(N4CCN(C)CC4)cc3)ncn2)c(OC)c1: 74
- CC1=C(CO)C(=O)O[C@@H]([C@@H](C)[C@H]2CC[C@H]3[C@@H]4C[C@H]5O[C@]56[C@@H](O)C=CC(=O)[C@]6(C)C4CC[C@]23C)C1 (some centres undefined): 94
- CCn1c(-c2nonc2N)nc2cncc(CNC3CCNCC3)c21: 95
